Give measured IC50 at 48 h for each item. Keep answers brief.
Procedure text: MTT cytotoxicity on HepaRG cells in HK-2/HepaRG co-culture
Format: cell-based
Measurement conditions: human, HepaRG cells in co-culture with HK-2 cells (IdMOC plates)
The reply should be a number in µM, with the unit left off.

I would be grateful if you could share the reported IC50 at 48 h for `COc1c(O)c(C)cc2c1C(=O)c1c(ccc(O)c1O)C2=O` .
44.2

Input `Cc1cc(O)c2c(c1)C(=O)c1cc(O)cc(O)c1C2=O`
31.9

Input `Cc1cc(O)c2c(c1)C(=O)c1cccc(O)c1C2=O`
170

Input `COc1cc2c(c(OC)c1OC)C(=O)c1c(cc(C)c(O)c1OC)C2=O`
388

Input `COc1c(O)c(C)cc2c1C(=O)c1c(cc(O)c(O)c1O)C2=O`
209

====

Procedure text: MTT cytotoxicity on HepaRG cells in HK-2/HepaRG co-culture
Format: cell-based
Measurement conditions: human, HepaRG cells in co-culture with HK-2 cells (IdMOC plates)
Under this convention, 1 denotes IC50 at 24 h strictly below 100 µM and -1 denotes IC50 at 24 h at or above 100 µM.

Say whether its IC50 at 24 h is strictly beneath 100 µM. Entry: `Cc1cc(O)c2c(c1)C(=O)c1cccc(O)c1C2=O`
-1

Input `O=C(O)c1cc(O)c2c(c1)C(=O)c1cccc(O)c1C2=O`
-1

Input `COc1cc(O)c2c(c1)C(=O)c1cc(C)cc(O)c1C2=O`
-1

Input `O=C1c2ccccc2C(=O)c2ccccc21`
1

Input `COc1c(O)c(C)cc2c1C(=O)c1c(cc(O)c(O)c1O)C2=O`
-1

Input `COc1c(O)c(C)cc2c1C(=O)c1c(ccc(O)c1O)C2=O`
-1

Input `COc1c(O)c(C)cc2c1C(=O)c1c(O)cccc1C2=O`
-1

Input COc1c(O)cc2c(c1O)C(=O)c1c(cc(C)c(O)c1OC)C2=O [No. 5, Aurantio-obtusin]
-1

Input `O=C1c2cccc(O)c2C(=O)c2c(O)cc(CO)cc21`
-1

Input `COc1cc2c(c(OC)c1OC)C(=O)c1c(cc(C)c(O)c1OC)C2=O`
1

Input `Cc1cc(O)c2c(c1)C(=O)c1cc(O)cc(O)c1C2=O`
-1

====

Tested on: HepaRG cells
Procedure text: MTT cytotoxicity on HepaRG cells in HK-2/HepaRG co-culture
Assay type: cell-based
Measurement conditions: read-out: Hepatic cytotoxicity IC50 HepaRG 24 h; co-culture, 24 h, MTT
Give measured IC50 for each item. Keep answers brief.
The reply should be a number in µM, with the unit left off.

I would be grateful if you could share the reported IC50 for COc1cc2c(c(O)c1OC)C(=O)c1c(cc(C)c(O)c1OC)C2=O [No. 2, Obtusin] .
298

Input COc1ccc2c(c1OC)C(=O)c1c(cc(C)c(O)c1OC)C2=O [No. 4]
420

====

Give measured IC50 at 24 h for each item. Keep answers brief.
Procedure text: MTT cytotoxicity on HK-2 cells in HK-2/HepaRG co-culture
Assay type: cell-based
Measurement conditions: human, HK-2 cells in co-culture with HepaRG cells (IdMOC plates)

I would be grateful if you could share the reported IC50 at 24 h for COc1c(O)cc2c(c1O)C(=O)c1c(cc(C)c(O)c1OC)C2=O [No. 5, Aurantio-obtusin] .
> 500 µM

Input COc1c(O)c(C)cc2c1C(=O)c1c(cc(O)c(O)c1O)C2=O [No. 6]
> 500 µM

Input O=C(O)c1cc(O)c2c(c1)C(=O)c1cccc(O)c1C2=O [No. 11, Rhein]
229 µM

Input COc1c(O)c(C)cc2c1C(=O)c1c(O)cccc1C2=O [No. 3, Obtusifoline]
310 µM

Input COc1c(O)c(C)cc2c1C(=O)c1c(ccc(O)c1O)C2=O [No. 7]
> 500 µM

Input O=C1c2cccc(O)c2C(=O)c2c(O)cc(CO)cc21 [No. 10, Aloe-emodin]
> 500 µM

Input Cc1cc(O)c2c(c1)C(=O)c1cc(O)cc(O)c1C2=O [No. 8, Emodin]
89 µM

Input COc1cc(O)c2c(c1)C(=O)c1cc(C)cc(O)c1C2=O [No. 12, Physcion]
> 500 µM

Input Cc1cc(O)c2c(c1)C(=O)c1cccc(O)c1C2=O [No. 9, Chrysophanol]
> 500 µM

Input COc1cc2c(c(OC)c1OC)C(=O)c1c(cc(C)c(O)c1OC)C2=O [No. 1, Chryso-obtusin]
53 µM

Input O=C1c2ccccc2C(=O)c2ccccc21 [No. 17, 9,10-Anthracenedione]
> 500 µM

====

Procedure text: MTT cytotoxicity on HK-2 cells in HK-2/HepaRG co-culture
Format: cell-based
Measurement conditions: human, HK-2 cells co-cultured with HepaRG cells in IdMOC plates
Assay endpoint: viability at 10 μmol/L
Record the result as a number with its unit.

I would be grateful if you could share the reported viability at 10 μmol/L for CC(C)[C@]12O[C@H]1[C@@H]1O[C@]13[C@]1(O[C@H]1C[C@H]1C4=C(CC[C@@]13C)C(=O)OC4)[C@@H]2O [Triptolide, reference compound] .
43.6%

====

Test system: HK-2 cells
Procedure text: MTT cytotoxicity on HK-2 cells in HK-2/HepaRG co-culture
Format: cell-based
Measurement conditions: read-out: Renal cytotoxicity IC50 HK-2 48 h; co-culture, 48 h, MTT
Give measured IC50 for each item. Keep answers brief.
The reply should be a number in µM, with the unit left off.

Missing value: IC50, HK-2 cells, entry COc1c(O[C@@H]2O[C@H](CO)[C@@H](O)[C@H](O)[C@H]2O)c(C)cc2c1C(=O)c1c(O)cccc1C2=O [No. 16, Obtusifoline-2-O-β-D-glucoside] . Fill in?
251

Input O=C(O)c1cc(O)c2c(c1)C(=O)c1cccc(O[C@@H]3O[C@H](CO)[C@@H](O)[C@H](O)[C@H]3O)c1C2=O [No. 15, Rhein-8-O-β-D-glucoside]
108

Input `COc1ccc2c(c1OC)C(=O)c1c(cc(C)c(O)c1OC)C2=O`
37.5

Input `COc1cc2c(c(O)c1OC)C(=O)c1c(cc(C)c(O)c1OC)C2=O`
57.8
